These data points were gathered from paper PMC9225712.

System: carrageenan-induced paw edoema
Test method notes: Carrageenan-induced paw edoema in mice
Run parameters: mice, po 10 µmol/kg b.wt., 6 h after carrageenan, Mean ± SEM, n = 5
Marks after values point to notes of the source that are not given here.
Form field: Thickness of edoema 6h (one value per entry).
Experimental endpoint: Thickness of edoema 6h

compound="O=C(c1cc(/N=N/c2ccc(S(=O)(=O)Nc3ncccn3)cc2)ccc1O)N1CCCCC1 [Compound 5j]" experimental_endpoint="Thickness of edoema 6h" result="0.60 ± 0.01^c mm"
compound="Cc1ccnc(NS(=O)(=O)c2ccc(/N=N/c3ccc(O)c(C(=O)N4CCOCC4)c3)cc2)n1 [Compound 5o]" experimental_endpoint="Thickness of edoema 6h" result="0.75 ± 0.02^c mm"
compound="CCCCNC(=O)c1cc(/N=N/c2ccc(S(=O)(=O)Nc3nccs3)cc2)ccc1O [Compound 5b]" experimental_endpoint="Thickness of edoema 6h" result="1.11 ± 0.01 mm"
compound="Cc1ccc(-c2cc(C(F)(F)F)nn2-c2ccc(S(N)(=O)=O)cc2)cc1 [Celecoxib, reference compound]" experimental_endpoint="Thickness of edoema 6h" result="0.73 ± 0.03^c mm"
compound="O=C(c1cc(/N=N/c2ccc(S(=O)(=O)Nc3ncccn3)cc2)ccc1O)N1CCOCC1 [Compound 5n]" experimental_endpoint="Thickness of edoema 6h" result="0.99 ± 0.05 mm"
compound="O=C(O)Cc1ccccc1Nc1c(Cl)cccc1Cl [Diclofenac sodium, reference compound]" experimental_endpoint="Thickness of edoema 6h" result="0.80 ± 0.01^c mm"
